Data origin: patent US9447100B2

Where a name gives a salt, the structure may show the parent alone.
Known melting point of a selection of molecules

Illustrative cases are given below, each with its answer.
Challenge: Fill in: melting point of CC1CC(c2ccccc2)Nc2c(C(=O)O)cnn21 (stereo not shown) is ___
Response given: 165 to 167 °C

Challenge: Queued: CCCC(CC)(CC)NC(=O)c1cnn2c1NC(c1ccccc1)CC2(C)C (stereo not shown)
Response given: 76 to 77 °C

More entries:
Challenge: Fill in: melting point of CCC(CC)(NC(=O)c1cnn2c1NC(c1ccccc1)CC2(C)C)c1cccc(Br)c1 (stereo not shown) is ___
Response given: 195 to 196 °C

Challenge: Queued: CCC(CC)(NC(=O)c1cnn2c1NC(c1ccc(C)cc1C)CC2(C)C)c1ccc(C)cc1 (stereo not shown) (as salt: HCl)
Response given: 150 to 151 °C

Challenge: Queued: Cc1nn2c(c1C(=O)O)NC(c1cccc(F)c1)CC2(C)C (stereo not shown)
Response given: 153 to 155 °C

Challenge: Queued: CCC(CC)(NC(=O)c1cnn2c1NC(c1ccccc1)CC2(C)C)c1ccc(I)cc1 (stereo not shown)
Response given: 182 to 183 °C

Challenge: Queued: CCC1(NC(=O)c2cnn3c2NC(c2ccccc2)CC3(C)C)CCC(C)CC1 (stereo not shown)
Response given: 160 to 161 °C

Challenge: Queued: CCC(CC)(NC(=O)c1cnn2c1NC(c1ccccc1)CC2(C)C)c1ccc(CCCO)cc1 (stereo not shown)
Response given: 194 to 195 °C

Challenge: Queued: CCc1ccc(C(CC)(CC)NC(=O)c2cnn3c2N[C@@H](c2ccccc2)CC3(C)C)cc1 (as salt: HCl)
Response given: 149 to 150 °C

Challenge: Queued: CCC(CC)(NC(=O)c1cnn2c1NC(c1ccccc1)CC2(C)C)c1ccc(-c2ccc(OC)nc2)cc1 (stereo not shown)
Response given: 172 to 173 °C

Challenge: Queued: CCC(CC)(NC(=O)c1c(C)nn2c1NC(c1ccccc1F)CC2(C)C)c1ccc(C)cc1 (stereo not shown) [Example 962]
Response given: 139 to 140 °C

Challenge: Queued: CCC1(CC)C[C@@H](O)CN1C(=O)c1cnn2c1N[C@@H](c1ccccc1)CC2(C)C
Response given: 250 to 252 °C

Challenge: Queued: CCC1(NC(=O)c2cnn3c2NC(c2ccccc2)CC3(C)C)CCCCCC1 (stereo not shown)
Response given: 129 to 130 °C

Challenge: Queued: CCC(CC)(NC(=O)c1cnn2c1NC(c1ccccc1OC)CC2(C)C)c1ccc(C)cc1 (stereo not shown) (as salt: HCl)
Response given: 158 to 159 °C

Challenge: Queued: O=C(c1cnn2c1N[C@H](c1ccccc1)C[C@@H]2C(F)(F)F)N(C1CCCCC1)C1CCCCC1 (stereo in doubt)
Response given: 243 to 244 °C

Challenge: Queued: CCCCOC(=O)CCc1ccc(C(CC)(CC)NC(=O)c2cnn3c2NC(c2ccccc2)CC3(C)C)cc1 (stereo not shown) (as salt: HCl)
Response given: 143 to 144 °C
